These measurements were taken from patent US5677282A.

biological target: 72 kD gelatinase (Homo sapiens, UniProt P08253)
Sequence (P08253 110-660): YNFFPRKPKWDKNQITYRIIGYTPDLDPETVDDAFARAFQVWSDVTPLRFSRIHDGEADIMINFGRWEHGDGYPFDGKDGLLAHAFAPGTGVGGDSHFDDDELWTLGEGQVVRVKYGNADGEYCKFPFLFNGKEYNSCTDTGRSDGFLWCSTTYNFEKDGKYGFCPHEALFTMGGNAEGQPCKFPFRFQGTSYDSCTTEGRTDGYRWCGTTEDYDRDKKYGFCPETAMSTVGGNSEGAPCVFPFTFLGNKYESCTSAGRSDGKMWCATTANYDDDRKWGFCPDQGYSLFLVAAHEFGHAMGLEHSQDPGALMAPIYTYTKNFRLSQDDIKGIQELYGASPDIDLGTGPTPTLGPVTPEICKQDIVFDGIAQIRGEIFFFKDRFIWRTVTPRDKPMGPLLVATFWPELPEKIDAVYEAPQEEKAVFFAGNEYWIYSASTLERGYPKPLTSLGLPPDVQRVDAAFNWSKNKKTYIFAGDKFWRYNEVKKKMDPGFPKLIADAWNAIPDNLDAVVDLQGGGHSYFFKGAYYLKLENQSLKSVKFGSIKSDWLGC
# note: boundary value 0.4 nM maps to NO; Ki below it maps to YES

SMILES TEXT	CAT
CC(C)C[C@H](NC(=O)[C@H](Cc1ccc(OCc2ccccc2)cc1)NC(=O)OCc1ccccc1)C(=O)Nc1n[nH]c(=S)s1	YES
CC(C)C[C@H](NC(=O)[C@H](Cc1ccccc1)NC(=O)OCc1ccccc1)C(=O)Nc1n[nH]c(=S)s1	NO
O=C(N[C@@H](Cc1ccc(OCc2ccccc2)cc1)C(=O)N[C@H](C(=O)Nc1n[nH]c(=S)s1)c1ccccc1)OCc1ccccc1	YES
CSCC[C@H](NC(=O)[C@H](Cc1ccccc1)NC(=O)OCc1ccccc1)C(=O)N[C@@H](Cc1ccc(OCc2ccccc2)cc1)C(=O)N[C@H](C(=O)Nc1n[nH]c(=S)s1)c1ccccc1	YES
O=C(CNC(=O)[C@H](Cc1ccc(OCc2ccccc2)cc1)NC(=O)OCc1ccccc1)Nc1n[nH]c(=S)s1	YES
CC(C)[C@H](NC(=O)[C@H](CSCc1ccccc1)NC(=O)OCc1ccccc1)C(=O)Nc1n[nH]c(=S)s1	NO

###

target: stromelysin (Homo sapiens, UniProt P08254); experiment: Assay of stromelysin inhibition activity (fluorogenic coumarin peptide substrate); details: trypsin-activated stromelysin 2 nM, H-150 buffer pH 7.4, room temperature; read-out: Ki(app)
Sequence (P08254 100-477): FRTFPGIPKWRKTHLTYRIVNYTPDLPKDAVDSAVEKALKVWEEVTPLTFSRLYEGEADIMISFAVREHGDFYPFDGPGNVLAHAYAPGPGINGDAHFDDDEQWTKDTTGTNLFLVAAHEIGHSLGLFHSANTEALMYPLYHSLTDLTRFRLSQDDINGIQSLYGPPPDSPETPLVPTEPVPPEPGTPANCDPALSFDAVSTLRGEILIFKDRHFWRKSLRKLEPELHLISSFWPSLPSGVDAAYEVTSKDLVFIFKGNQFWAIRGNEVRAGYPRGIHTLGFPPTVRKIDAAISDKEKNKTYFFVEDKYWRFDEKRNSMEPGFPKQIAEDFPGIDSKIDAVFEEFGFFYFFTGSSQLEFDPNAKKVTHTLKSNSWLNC
pKi: −log10 of the molar value.
ENDPOINT NAME: pKi

COMPOUND	MEASUREMENT
CC(C)[C@H](NC(=O)OCC1c2ccccc2-c2ccccc21)C(=O)Nc1n[nH]c(=S)s1	6.89
CC(C)[C@H](NC(=O)[C@H](Cc1ccc([N+](=O)[O-])cc1)NC(=O)OCc1ccccc1)C(=O)Nc1n[nH]c(=S)s1	6.74
O=C(CC[C@H](NC(=O)OCc1ccccc1)C(=O)NC(C(=O)Nc1n[nH]c(=S)s1)c1ccccc1)NC(c1ccccc1)(c1ccccc1)c1ccccc1 (stereo partly shown)	7.30
CC(C)C[C@H](NC(=O)OCc1ccccc1)C(=O)N[C@@H](Cc1ccc(O)cc1)C(=O)Nc1n[nH]c(=S)s1	5.89
O=C(N[C@@H](CCc1ccccc1)C(=O)Nc1n[nH]c(=S)s1)OCC1c2ccccc2-c2ccccc21	6.36
CC(C)C[C@H](NC(=O)OCC1c2ccccc2-c2ccccc21)C(=O)Nc1n[nH]c(=S)s1	6.74
CC(C)[C@H](NC(=O)[C@H](Cc1ccccc1F)NC(=O)OCc1ccccc1)C(=O)Nc1n[nH]c(=S)s1	6.20
CC(C)C[C@H](NC(=O)[C@@H]1CCCN1C(=O)OCc1ccccc1)C(=O)N[C@@H](C)C(=O)Nc1n[nH]c(=S)s1	5.76
CC(=O)N[C@@H](CC(C)C)C(=O)N[C@@H](CC(C)C)C(=O)Nc1n[nH]c(=S)s1	5.19
CC(C)C[C@H](NC(=O)[C@H](Cc1ccccc1)NC(=O)OCc1ccccc1)C(=O)Nc1n[nH]c(=S)s1	6.77
O=C(CNC(=O)[C@H](Cc1ccccc1)NC(=O)OCc1ccccc1)Nc1n[nH]c(=S)s1	5.40
CC(C)[C@H](NC(=O)[C@H](Cc1ccccc1)NC(=O)OCc1ccccc1)C(=O)N[C@@H](Cc1c[nH]c2ccccc12)C(=O)Nc1n[nH]c(=S)s1	6.56
CC(C)[C@H](NC(=O)[C@H](Cc1cc(I)c(O)c(I)c1)NC(=O)OCc1ccccc1)C(=O)Nc1n[nH]c(=S)s1	7.01
CSCC[C@H](NC(=O)[C@H](Cc1ccccc1)NC(=O)OCc1ccccc1)C(=O)Nc1n[nH]c(=S)s1	5.95
CC(C)C(NC(=O)C(Cc1ccccc1)NC(=O)c1ccc(OCc2ccccc2)cc1)C(=O)Nc1n[nH]c(=S)s1 (stereo not shown)	7.21
CC(C)[C@H](NC(=O)[C@H](CCC(=O)OCc1ccccc1)NC(=O)OCc1ccccc1)C(=O)Nc1n[nH]c(=S)s1	6.84
CC(C)[C@H](NC(=O)[C@H](CCC(=O)NC(c1ccccc1)(c1ccccc1)c1ccccc1)NC(=O)OCc1ccccc1)C(=O)Nc1n[nH]c(=S)s1	7.04
CCCCCCCCC(=O)N[C@@H](Cc1ccccc1)C(=O)N[C@H](C(=O)Nc1n[nH]c(=S)s1)C(C)C	7.08
CSc1ncccc1C(=O)NC(Cc1ccccc1)C(=O)NC(C(=O)Nc1n[nH]c(=S)s1)C(C)C (stereo not shown)	6.04
CC(C)[C@H](NC(=O)[C@@H](NC(=O)OCc1ccccc1)C1CCCCC1)C(=O)Nc1n[nH]c(=S)s1	6.74
CC(C)[C@H](NC(=O)[C@H](Cc1ccc(OCc2ccccc2)cc1)NC(=O)OCc1ccccc1)C(=O)Nc1n[nH]c(=S)s1	7.10
CC(C)[C@H](NC(=O)[C@H](CSCc1ccccc1)NC(=O)OCc1ccccc1)C(=O)Nc1n[nH]c(=S)s1	6.69
O=C(N[C@@H](Cc1c[nH]c2ccccc12)C(=O)Nc1n[nH]c(=S)s1)OCc1ccccc1	5.47
C[C@H](NC(=O)[C@H](Cc1ccccc1)NC(=O)OCc1ccccc1)C(=O)Nc1n[nH]c(=S)s1	5.85
CC(C)(C)OC(=O)N[C@@H](CCc1ccccc1)C(=O)Nc1n[nH]c(=S)s1	4.92
CCCC(NC(=O)OCC1c2ccccc2-c2ccccc21)C(=O)Nc1n[nH]c(=S)s1 (stereo not shown)	6.29
CC(C)[C@H](NC(=O)[C@H](Cc1c[nH]c2ccccc12)NC(=O)[C@H](Cc1ccccc1)NC(=O)OCc1ccccc1)C(=O)Nc1n[nH]c(=S)s1	7.22
O=C(N[C@@H](Cc1ccccc1)C(=O)Nc1n[nH]c(=S)s1)OCc1ccccc1	5.63
CC(C)C[C@H](NC(=O)OCc1ccccc1)C(=O)N[C@H](C(=O)Nc1n[nH]c(=S)s1)C(C)C	6.18
NCCCC[C@H](NC(=O)OCc1ccccc1)C(=O)N[C@@H](Cc1ccc(OCc2ccccc2)cc1)C(=O)N[C@H](C(=O)Nc1n[nH]c(=S)s1)c1ccccc1	5.72
O=C(N[C@@H](Cc1ccc(OCc2ccccc2)cc1)C(=O)N[C@H](C(=O)Nc1n[nH]c(=S)s1)C1CCCCC1)OCc1ccccc1	7.15

###

pKi: −log10 of the molar value.
Below are pKi values recorded for 92 kD gelatinase (Homo sapiens, UniProt P14780).
ENDPOINT NAME: pKi

COMPOUND	TEST TARGET	ENDPOINT NAME	MEASUREMENT
O=C(N[C@H](C(=O)Nc1n[nH]c(=S)s1)c1ccccc1)[C@H](Cc1ccc(OCc2ccccc2)cc1)NC(=O)[C@@H]1CCCN1C(=O)OCc1ccccc1	92 kD gelatinase (Homo sapiens, UniProt P14780)	pKi	9.12
O=C(N[C@@H](CCc1ccccc1)C(=O)Nc1n[nH]c(=S)s1)OCC1c2ccccc2-c2ccccc21	92 kD gelatinase (Homo sapiens, UniProt P14780)	pKi	9.46
CC(C)[C@H](NC(=O)[C@H](Cc1ccccc1)NC(=O)c1ccc(-c2ccccc2)cc1)C(=O)Nc1n[nH]c(=S)s1	92 kD gelatinase (Homo sapiens, UniProt P14780)	pKi	9.51
CC(C)C(NC(=O)C(Cc1ccc(NC(=O)OCc2ccccc2)cc1)NC(=O)OCc1ccccc1)C(=O)Nc1n[nH]c(=S)s1 (stereo not shown)	92 kD gelatinase (Homo sapiens, UniProt P14780)	pKi	9.84

###

target: human neutrophil collagenase (Homo sapiens, UniProt P22894); assay: Assay of human neutrophil collagenase inhibition activity; details: human neutrophil collagenase 2 nM, H-150 buffer pH 7.4; read-out: Ki(app)
Sequence (P22894 101-467): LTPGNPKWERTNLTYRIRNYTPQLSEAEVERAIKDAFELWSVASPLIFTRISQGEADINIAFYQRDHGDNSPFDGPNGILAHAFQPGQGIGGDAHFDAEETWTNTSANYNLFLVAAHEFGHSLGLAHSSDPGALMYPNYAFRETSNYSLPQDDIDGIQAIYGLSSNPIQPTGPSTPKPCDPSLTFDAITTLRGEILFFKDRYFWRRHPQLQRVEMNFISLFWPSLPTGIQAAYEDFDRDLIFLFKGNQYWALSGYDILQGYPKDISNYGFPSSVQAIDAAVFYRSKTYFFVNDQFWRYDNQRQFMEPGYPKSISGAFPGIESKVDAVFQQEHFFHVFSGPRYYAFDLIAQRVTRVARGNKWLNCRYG
Below, each of the molecules is paired with its reported Ki value.
ENDPOINT NAME: Ki (nM)

SMILES TEXT	ENDPOINT NAME	UNITS TEXT	MEASUREMENT
CC(C)[C@H](NC(=O)[C@H](Cc1ccc(OCc2ccccc2)cc1)NC(=O)OCc1ccccc1)C(=O)Nc1n[nH]c(=S)s1	Ki	nM	2.15
O=C(N[C@@H](Cc1ccc(OCc2ccccc2)cc1)C(=O)N[C@H](C(=O)Nc1n[nH]c(=S)s1)c1ccccc1)OCc1ccccc1	Ki	nM	1.57
CC(C)[C@H](NC(=O)[C@H](CSCc1ccccc1)NC(=O)OCc1ccccc1)C(=O)Nc1n[nH]c(=S)s1	Ki	nM	3.2
CC(C)C[C@H](NC(=O)[C@H](Cc1ccc(OCc2ccccc2)cc1)NC(=O)OCc1ccccc1)C(=O)Nc1n[nH]c(=S)s1	Ki	nM	1.83

###

Measured Ki, listed per entry.
biological target: stromelysin (Homo sapiens, UniProt P08254); assay: Assay of stromelysin inhibition activity (fluorogenic coumarin peptide substrate); settings: trypsin-activated stromelysin 2 nM, H-150 buffer pH 7.4, room temperature; read-out: Ki(app)
ENDPOINT NAME: Ki (nM)

SMILES TEXT	ENDPOINT NAME	MEASUREMENT
O=C(N[C@@H](Cc1c[nH]c2ccccc12)C(=O)N[C@@H](Cc1ccccc1)C(=O)Nc1n[nH]c(=S)s1)OCc1ccccc1	Ki	225
CC(C)[C@H](NC(=O)[C@H](COCc1ccccc1)NC(=O)OCc1ccccc1)C(=O)Nc1n[nH]c(=S)s1	Ki	236
CC(C)C[C@H](NC(=O)[C@H](Cc1ccc(OCc2ccccc2)cc1)NC(=O)OCc1ccccc1)C(=O)Nc1n[nH]c(=S)s1	Ki	96
